Target: ABCG2 (breast cancer resistance protein, BCRP) (Homo sapiens)
Construct: wild-type ABCG2 (R482) in overexpressing cell membranes
Sequence (Q9UNQ0 whole entry): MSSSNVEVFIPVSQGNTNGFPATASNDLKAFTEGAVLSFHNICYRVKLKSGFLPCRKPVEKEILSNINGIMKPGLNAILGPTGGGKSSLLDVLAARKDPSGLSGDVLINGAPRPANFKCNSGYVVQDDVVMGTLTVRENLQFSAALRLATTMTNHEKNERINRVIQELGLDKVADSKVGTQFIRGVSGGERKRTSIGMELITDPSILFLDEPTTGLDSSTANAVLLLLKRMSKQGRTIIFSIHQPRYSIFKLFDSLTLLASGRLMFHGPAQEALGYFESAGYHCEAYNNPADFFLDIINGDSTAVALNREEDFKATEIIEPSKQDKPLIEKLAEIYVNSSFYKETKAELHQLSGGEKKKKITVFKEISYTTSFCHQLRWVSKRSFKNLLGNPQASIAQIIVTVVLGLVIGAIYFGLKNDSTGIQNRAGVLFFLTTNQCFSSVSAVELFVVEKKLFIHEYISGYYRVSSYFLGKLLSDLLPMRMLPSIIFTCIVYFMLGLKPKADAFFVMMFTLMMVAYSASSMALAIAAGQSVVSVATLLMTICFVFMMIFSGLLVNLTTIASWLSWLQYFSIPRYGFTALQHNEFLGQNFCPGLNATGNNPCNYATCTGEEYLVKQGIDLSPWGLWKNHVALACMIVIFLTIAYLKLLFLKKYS
Assay: vanadate-sensitive ATPase assay in ABCG2-overexpressing cell membranes; [3H]-mitoxantrone accumulation and efflux in cells
METRIC NAME: IC50 (µM)
Kindly provide the numeric value in µM only, without the unit symbol.

Exercise: Can you look up IC50 on ABCG2 (breast cancer resistance protein, BCRP) (Homo sapiens) for `CC1(C)CCC(CN2CCN(c3ccc(C(=O)NS(=O)(=O)c4ccc(NCC5CCOCC5)c([N+](=O)[O-])c4)c(Oc4cnc5[nH]ccc5c4)c3)CC2)=C(c2ccc(Cl)cc2)C1` ?
Key: 4.78
